Molecular target: Fibroblast growth factor 2 (Homo sapiens) (UniProt P09038)
Sequence (P09038 whole entry, looked up): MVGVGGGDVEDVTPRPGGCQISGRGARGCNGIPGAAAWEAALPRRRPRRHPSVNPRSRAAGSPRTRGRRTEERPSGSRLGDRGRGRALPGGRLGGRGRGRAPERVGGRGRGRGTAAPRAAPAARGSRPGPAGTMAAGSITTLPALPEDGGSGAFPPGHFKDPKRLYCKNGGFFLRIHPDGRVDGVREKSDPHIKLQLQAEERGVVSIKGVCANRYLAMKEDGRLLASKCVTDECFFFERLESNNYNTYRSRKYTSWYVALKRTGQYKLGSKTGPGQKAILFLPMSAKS
Assay: FGF2 binders on small-molecule microarrays, primary screen, biochemical, small-molecule microarray, 635/667 nm fluorescence (AID 1133)
Details: small-molecule microarray binding, FGF2, fluorescence 635/667; higher = more signal
Note that class boundaries on composite z-score are bin 0 = under -0.2, bin 1 = from -0.2 up to 0.5, bin 2 = 0.5 and over

# bin lookup: classify COC(=O)[C@@]1(Cc2ccccc2CN=[N+]=[N-])COC(c2ccc(OCCCO)cc2)=N1 by its composite z-score
bin 0

Sort O=C1O[C@H](c2ccccc2)[C@H](c2ccccc2)N2[C@H]1[C@@H](C(=O)N1CCN(c3ncccn3)CC1)[C@]1(C(=O)Nc3ccccc31)[C@H]2c1ccc(O)cc1 into one of the categories.
bin 1

// bin(item) where item = COc1ccc(NN2C(C(O)c3cc(C(F)(F)F)cc(C(F)(F)F)c3)C=CC3C(=O)N(C4CCCCC4)C(=O)C32)cc1 (centres undefined)
bin 1

Quick check: band for CC(C)C[C@@H]1NC(=O)[C@H]2C[C@@H](C(=O)NCCCCCNC(=O)CS)[C@@H](c3ccc(O)cc3)N2C1=O
bin 2

Form field 'band' for [N-]=[N+]=NCc1ccccc1C[C@@]1(C(=O)O)N=C(c2ccc(OCCCO)cc2)O[C@@H]1c1ccccc1CN=[N+]=[N-]
bin 2

Hey, which category is O=C1C2C=CC(C(O)c3cccc(O)c3)N(Nc3ccccc3F)C2C(=O)N1c1ccccc1 (centres undefined) in, do you know?
bin 0

Would you mind sorting C#CCN([C@H](/C=C/C1CC1)[C@@H](O)Cc1ccccc1)[C@@H](Cc1ccccc1)C(=O)OC into the appropriate category?
bin 1

Quick check: band for O=C1O[C@H](c2ccccc2)[C@H](c2ccccc2)N2[C@H]1[C@@H](C(=O)NC[C@H](O)c1ccccc1)[C@]1(C(=O)Nc3ccc(C#CCCO)cc31)[C@H]2c1ccccc1OCCO
bin 1

Band assignment needed for CCOC(=O)C[C@H]1[C@H](OC(=O)c2ccc(C(=O)c3ccccc3)cc2)[C@@H](NC(=O)c2ccc3ccccc3c2)c2cc(OCCCO)ccc2N1C(=O)c1ccc2ccccc2n1 please.
bin 2

Category lookup for the compound CCCCN1CC=CC23O[C@@H]4C=CCOC(=O)[C@@H]4[C@H]2C(=O)N(CCO)[C@@H]3C1=O (some centres undefined)
bin 0

The entry to classify is COc1ccc(CCNC(=O)[C@@]2(Sc3ccc(C)cc3)CC(=O)N(Cc3cc(C(F)(F)F)cc(C(F)(F)F)c3)[C@@H]2c2ccc(CO)cc2)cc1 ; which class holds it?
bin 0

Given CC(=O)n1cc(C(O)C2C=CC3C(=O)N(c4ccccc4)C(=O)C3N2Nc2ccccc2F)c2ccccc21 (centres undefined) , name the class its composite z-score places it in.
bin 0

Exercise: read the entry COCCOC(=O)N1C(=O)[C@@]2(c3cc(C#CC4=CCCCC4)ccc31)[C@H](c1ccccc1OCCO)N1[C@H](c3ccccc3)[C@H](c3ccccc3)OC(=O)[C@H]1[C@@H]2C(N)=O and state which class it falls under.
bin 2

* * *

Biological target: Left-right determination factor 2 (Homo sapiens) (UniProt O00292)
Sequence (O00292 whole entry, looked up): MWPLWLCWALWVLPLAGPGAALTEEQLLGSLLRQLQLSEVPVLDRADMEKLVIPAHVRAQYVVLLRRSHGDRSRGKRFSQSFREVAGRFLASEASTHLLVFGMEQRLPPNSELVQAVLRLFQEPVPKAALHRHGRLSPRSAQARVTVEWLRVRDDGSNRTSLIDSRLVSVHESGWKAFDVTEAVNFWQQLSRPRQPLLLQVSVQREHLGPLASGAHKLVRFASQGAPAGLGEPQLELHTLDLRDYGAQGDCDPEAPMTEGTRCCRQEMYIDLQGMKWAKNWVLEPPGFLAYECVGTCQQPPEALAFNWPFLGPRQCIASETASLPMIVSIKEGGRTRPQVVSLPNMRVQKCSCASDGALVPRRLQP
Assay: LEFTY2 binders on small-molecule microarrays, primary screen, biochemical, small-molecule microarray, 635 nm fluorescence scan (AID 1110)
Details: LEFTY2 binding, higher = more signal
Everything with composite z-score lower than 0.3 is NOT MET; everything else, including exactly 0.3, is MET.

Is reported composite z-score greater than or equal to 0.3 here: CC(C)C[C@@H]1NC(=O)[C@@]23C(=O)N[C@@H](Cc4ccccc4)C2[C@H](C)[C@@]2(C)O[C@H]2C3/C=C/C/C=C\CNC(=O)[C@@H](CC(C)C)NC1=O (some centres not stated)
MET

Decide: is the reported value of composite z-score for COC(=O)[C@@]1(Cc2ccc(F)cc2)[C@H]2c3cc(C(=O)N4CCCC4)n(CCO)c3C[C@H]2CN1C(=O)c1ccccc1 equal to or greater than 0.3?
NOT MET

Textbook exercise: given the entry NCCCC[C@@H]1NC(=O)[C@H]2C[C@@H](C(=O)NCc3ccc(F)cc3)[C@@H](c3cccc(OCCO)c3)N2C1=O , state whether its composite z-score is greater than or equal to 0.3.
MET

Could you verify whether the entry CCCCN1CC=CC23O[C@@H]4/C=C\CCC(C)OC(=O)C4[C@H]2C(=O)N(C(C)CO)[C@@H]3C1=O (some centres not stated) shows composite z-score of no less than 0.3?
NOT MET

I'd appreciate it if you could say whether CCCC=C(CCC)[C@@H](NC(=O)c1ccco1)c1ccc(C(=O)OC)cc1 has composite z-score at least equal to 0.3.
NOT MET

State whether the measured composite z-score reaches 0.3, counting equality as reaching it, for CCN(CC)c1ccc(N2CC=CC34O[C@@H]5C=CCOC(=O)[C@@H]5[C@H]3C(=O)N(CCO)[C@@H]4C2=O)cc1 (some centres not stated)
NOT MET

* * *

Experiment: small-molecule microarray binders of probe aShh, primary screen, biochemical, biotinylated probe, 635/667 nm fluorescence (AID 1114);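 also: probe is biotin-labelled aShh protein from a stem cell growth factor screen; measures binding of labelled protein to compounds printed on the slide; score merges feature fluorescence at 667 nm with signal-to-noise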
Settings: higher = more signal
Quick rule for you: composite z-score at -0.006 or higher means true, lower means false.

Check this molecule for composite z-score at or above -0.006: O=C(NCCO)C1=C[C@H](Oc2ccccc2I)[C@@H](O)[C@H](NCc2ccc(F)cc2)C1
false

Determine whether this molecule has composite z-score no lower than -0.006: O=C(NCC(F)(F)F)[C@@H]1c2ccccc2C(=O)N(CC23CC4CC(CC(C4)C2)C3)[C@H]1c1ccc(CO)cc1
true

Say whether C=CCNC(=O)[C@@H]1[C@H]2C(=O)O[C@H](c3ccccc3)[C@H](c3ccccc3)N2[C@H](c2ccc(O)cc2)[C@@]12C(=O)Nc1ccc(C#CC3(O)CCCCCC3)cc12 shows composite z-score of -0.006 or more.
true

Decide: composite z-score of Cc1ccc(S[C@]2(C(=O)NCC(F)(F)F)CC(=O)N(C3CCCCC3)[C@@H]2c2ccc(CO)cc2)cc1 >= -0.006?
true

Is composite z-score for CN(C)C(=O)[C@]1(Cc2ccccc2)N=C(c2ccc(OCCCO)cc2)O[C@@H]1c1ccccc1 at or above -0.006?
false

Check this molecule for composite z-score at or above -0.006: CC1(C)OC[C@@]23C=C(Br)[C@@H](C[C@H]12)[C@@]1(CO1)C3=O
false

Is the recorded value of composite z-score equal to or greater than -0.006 for this molecule? COCCCNC(=O)[C@@H]1c2ccccc2C(=O)N(C2CCCCC2)[C@H]1c1ccc(CO)cc1
false

Entry COc1ccc(C(O)C2C=CC3C(=O)N(C)C(=O)C3N2Nc2ccc([N+](=O)[O-])cc2[N+](=O)[O-])cc1OCc1ccccc1 (stereo unspecified) : is its composite z-score no less than -0.006?
true

Tell me whether composite z-score is at least -0.006 here: COCCCN1C(=O)[C@@]2(Cc3ccccc31)c1ccccc1C(=O)N(Cc1ccccc1OC)[C@H]2c1ccc(CO)cc1
false

Item C=CC[C@]1(C(=O)NCc2ccccc2)COC(c2ccc(OCCCO)cc2)=N1 with composite z-score of -0.006 or above?
true

Hello, I need to know if C=CCC(OC(C)=O)[C@@H]1[C@@H](N(Cc2ccc(-c3cccc(C(F)(F)F)c3)o2)C(=O)c2cccc3ccccc23)c2cc(OCCCO)ccc2N1C(=O)c1ccc2ccccc2c1 (stereo partly specified) has measured composite z-score not below -0.006. Thanks!
false

composite z-score >= -0.006 for C=CCC(OC(C)=O)[C@@H]1[C@@H](N(Cc2ccc(-c3ccccc3)cc2)C(=O)c2ccc(-c3ccccc3)cc2)c2cc(OCCCO)ccc2N1C(=O)c1ccc2ccccc2n1 (stereo partly specified) ?
false

Identify whether the reported composite z-score of the following molecule is -0.006 or greater: O=C1NC(=O)C2C1C=CC(C(O)c1ccc(F)cc1)N2Nc1ccccn1 (stereo unspecified)
true

Form field: composite z-score at least -0.006? Entry: COc1ccc([Si](C)(C)[C@H]2[C@H](CCO)O[C@@]3(C(=O)N(Cc4ccccc4)c4ccc(N(C=O)c5ccccc5)cc43)[C@@H]2C)cc1
false

Assess whether reported composite z-score for CC#CCO[Si](C#CCCCCCC)(C(C)C)C(C)C sits at -0.006 or higher.
false

hey, is composite z-score for this one >= -0.006? CC(C)C[C@@H]1NC(=O)C([C@@H](C)OCc2ccccc2)NC(=O)[C@@]23C(=O)N[C@@H](Cc4ccccc4)C2[C@H](C)[C@@]2(C)O[C@H]2C3/C=C/CC/C=C/CNC1=O (stereo partly specified)
false

* * *

Biological target: Dihydroorotate dehydrogenase (quinone), mitochondrial (Plasmodium falciparum (isolate 3D7))
Experiment: PfDHODH enzyme inhibitors, primary screen, biochemical, C-terminal His tag, absorbance 600 nm (AID 1175);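 also: recombinant parasite enzyme with a five histidine tag at its C terminus; test concentration not given here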
Conditions: DCIP absorbance 600 nm, higher = more signal, called active from +8 up or from −8 down
Response field class: enum, chosen by comparing composite z-score against c1 (below -1), c2 (-1 to below -0.3), c3 (-0.3 or more)

State the class of the compound shown: CN(C)C(=O)[C@]1(Cc2ccccc2)N=C(c2ccc(OCCCO)cc2)O[C@@H]1c1ccccc1
c3

Category of C=C(/C(=C/C[C@H](OC(=O)c1ccncc1)c1ccccc1OCCO)c1cc(C(=O)OC)ccc1OC)C(C)C :
c1

Quick check: band for CN(C)C(=O)[C@]1(Cc2ccccc2CN=[N+]=[N-])N=C(c2ccc(OCCCO)cc2)O[C@@H]1c1ccccc1N=[N+]=[N-]
c2

Which class is correct for the following compound? C=C(COC)C(=O)CC[C@@H](OC(C)=O)c1ccc(OCCO)cc1
c1

Please indicate the class for CN(C)CCCC[C@@H]1NC(=O)[C@H]2C[C@@H](C(=O)O)[C@@H](c3cccc(OCCO)c3)N2C1=O based on its composite z-score.
c2

Kindly identify the class of COC(=O)[C@@]1(Cc2ccccc2CN=[N+]=[N-])COC(c2ccc(OCCCO)cc2)=N1 .
c3

Entry CC(C)C[C@@H]1NC(=O)C([C@@H](C)OCc2ccccc2)NC(=O)[C@@]23C(=O)N[C@@H](Cc4ccccc4)C2[C@H](C)[C@@]2(C)O[C@H]2C3/C=C/CC/C=C/CNC1=O (stereo not given in full) belongs to which category?
c2

Which composite z-score category applies to O=C1NC(=O)C2C1C=CC(C(O)c1ccc(F)cc1)N2Nc1ccccn1 (stereo not given) here?
c3

Kindly state the category for this compound: COCCOC(=O)N1C(=O)[C@@]2(c3cc(C#Cc4ccc(OC)cc4)ccc31)[C@H](c1ccc(OCCO)cc1)N1[C@H](c3ccccc3)[C@H](c3ccccc3)OC(=O)[C@H]1[C@@H]2C(=O)N1CCCCCCC1
c1

Which class is correct for the following compound? CC(C)CNC(=O)[C@@H]1c2ccccc2C(=O)N(C2Cc3ccccc3C2)[C@H]1c1ccc(CO)cc1
c2

Consider NC(=O)NCC#Cc1ccc2c(c1)[C@]1(C(=O)N2)[C@H](C(=O)Nc2nc3ccccc3s2)[C@H]2C(=O)O[C@H](c3ccccc3)[C@H](c3ccccc3)N2[C@@H]1c1ccc(OCCO)cc1 . To which composite z-score class does it belong?
c2

Please indicate the class for COC(=O)[C@@]1(CCC(=O)OC(C)(C)C)N=C(c2ccc(OCCCO)cc2)O[C@H]1c1ccccc1CN=[N+]=[N-] based on its composite z-score.
c3

Determine which band this compound sits in: CCOC(=O)C1=C[C@@H](C(C)(C)C)N(S(=O)(=O)c2ccc(C)cc2)[C@H]1c1ccccc1Cl
c3

Quick check: band for COC(=O)Cn1c(C(=O)N(C)C)cc2c1C[C@H]1CN(C(=O)c3ccccc3)[C@@](Cc3ccc(OC)cc3)(C(=O)OC)[C@@H]21
c3

Which bin should I file C=C(C(=O)CC[C@@H](OC(C)=O)c1cccc(OCCO)c1)C(C)C under?
c2

Would you mind sorting CC1CC/C=C\[C@H]2OC34C=CCN(c5ccc(Cl)cc5)C(=O)[C@H]3N(CCCO)C(=O)[C@]4(C)C2C(=O)O1 (stereo not given in full) into the appropriate category?
c3

# bin lookup: classify NC(=O)[C@@]1(CCS(=O)(=O)c2ccccc2)COC(c2ccc(OCCCO)cc2)=N1 by its composite z-score
c2

Quick check: band for CCCCCN1CC=CC23O[C@@H]4C=CCOC(=O)[C@@H]4[C@H]2C(=O)N(CCCCCO)[C@@H]3C1=O (stereo not given in full)
c1

Hello team, could you let me know which band the following compound falls into: CCOC(=O)C1=CC[C@@H](c2ccccc2Cl)N(S(=O)(=O)c2ccc(C)cc2)[C@H]1c1cccc(OC)c1
c3

# bin lookup: classify CCOC(=O)C1=CC[C@@H](c2ccccc2)N(S(=O)(=O)c2ccc(C)cc2)[C@H]1C#N by its composite z-score
c1

Category lookup for the compound COc1ccc([Si](C)(C)[C@@H]2[C@@H](CCO)O[C@]3(C(=O)N(Cc4ccccc4)c4ccc(N5C(=O)c6ccccc6Oc6ccccc65)cc43)[C@H]2C)cc1
c2

State the band of NC(=O)N1C(=O)C2C(C1=O)C1C=C(CCCO)C2C(c2ccc(CN3CCCC3)cc2)N1Cc1cccc(OC(F)(F)F)c1 (stereo not given)
c1

Which class holds COc1ccccc1CN1C(=O)c2ccccc2[C@@H](C(=O)NCCCN(C)C)[C@@H]1c1ccc(CO)cc1 ?
c3

State the band of C=CC(CO)NC(=O)OCC1c2ccccc2-c2ccccc21 (stereo not given)
c1

Lab note: sort COC(=O)c1ccc([C@H](NC(=O)c2ccccc2)[C@]2(C)C[C@H]2C2CCCCC2)cc1 into the matching composite z-score band.
c3

Assign a bin to CCCC[C@H]1OB(O)C[C@H]2C1=C(COC)C[C@H]1C(=O)C=CC(=O)[C@H]12
c1

Place this compound in its band: CC(C)C[C@@H]1NC(=O)[C@@H]2C[C@H](C(=O)NCCCC[N+](C)(C)C)[C@H](c3ccc(O)cc3)N2C1=O
c1

Could you place COC(=O)C1=CC(CCCO)=CC(C2CC2)N(Cc2cccc(OC(F)(F)F)c2)C=C1C(=O)OC (stereo not given) in its proper category? Many thanks.
c1

Classify this compound: COCCOC(=O)N1C(=O)[C@@]2(c3cc(C#Cc4ccc(OC)cc4)ccc31)[C@H](C(=O)N1CCCCCCC1)[C@H]1C(=O)O[C@H](c3ccccc3)[C@H](c3ccccc3)N1[C@@H]2c1ccccc1OCCO
c3
